methodDescription: in vitro
conditionInfo: human
This section presents compounds with their documented CC50 values.
valueType: CC50

- O=c1c(O)c(-c2ccc(O)cc2)oc2cc(O)cc(O)c12: 90.4 µM
- O=C(/C=C/c1ccc(O)c(O)c1)O[C@H](Cc1ccc(O)c(O)c1)C(=O)O: > 500 µM
- C[C@@H]1O[C@@H](OC[C@H]2O[C@@H](Oc3c(-c4ccc(O)c(O)c4)oc4cc(O)cc(O)c4c3=O)[C@H](O)[C@@H](O)[C@@H]2O)[C@H](O)[C@H](O)[C@H]1O: > 500 µM

Data credit: paper PMC12466706
